test: Oral pharmacokinetics in male Sprague Dawley rats; format: in vivo; details: rat, serum, 250 mg/kg
Kindly state AUC(0-t) for each of the entries shown.
Use ng·h/mL as the unit, but write only the number.

Entry `COc1c(-c2ccc(O)c(O)c2)oc2cc3c(c(O)c2c1=O)OCO3` , AUC(0-t) reported as 39

Entry `COc1c(O)cc2oc(-c3ccc(O)c(O)c3)c(OC)c(=O)c2c1O` , AUC(0-t) reported as 23.3

---

assay: Oral pharmacokinetics in male Sprague Dawley rats; type: in vivo; settings: rat, serum, 250 mg/kg
Reported property: Cmax (ng/mL)
Use ng/mL as the unit, but write only the number.

Entry COc1c(-c2ccc(O)c(O)c2)oc2cc3c(c(O)c2c1=O)OCO3 [Compound K007] , Cmax reported as 7.6

Entry COc1c(O)cc2oc(-c3ccc(O)c(O)c3)c(OC)c(=O)c2c1O [Compound K008] , Cmax reported as 5
